# Test Target: dog mGlu1 (Canis lupus familiaris, UniProt A0A8I3NTE8)
# Sequence (A0A8I3NTE8 30-1195): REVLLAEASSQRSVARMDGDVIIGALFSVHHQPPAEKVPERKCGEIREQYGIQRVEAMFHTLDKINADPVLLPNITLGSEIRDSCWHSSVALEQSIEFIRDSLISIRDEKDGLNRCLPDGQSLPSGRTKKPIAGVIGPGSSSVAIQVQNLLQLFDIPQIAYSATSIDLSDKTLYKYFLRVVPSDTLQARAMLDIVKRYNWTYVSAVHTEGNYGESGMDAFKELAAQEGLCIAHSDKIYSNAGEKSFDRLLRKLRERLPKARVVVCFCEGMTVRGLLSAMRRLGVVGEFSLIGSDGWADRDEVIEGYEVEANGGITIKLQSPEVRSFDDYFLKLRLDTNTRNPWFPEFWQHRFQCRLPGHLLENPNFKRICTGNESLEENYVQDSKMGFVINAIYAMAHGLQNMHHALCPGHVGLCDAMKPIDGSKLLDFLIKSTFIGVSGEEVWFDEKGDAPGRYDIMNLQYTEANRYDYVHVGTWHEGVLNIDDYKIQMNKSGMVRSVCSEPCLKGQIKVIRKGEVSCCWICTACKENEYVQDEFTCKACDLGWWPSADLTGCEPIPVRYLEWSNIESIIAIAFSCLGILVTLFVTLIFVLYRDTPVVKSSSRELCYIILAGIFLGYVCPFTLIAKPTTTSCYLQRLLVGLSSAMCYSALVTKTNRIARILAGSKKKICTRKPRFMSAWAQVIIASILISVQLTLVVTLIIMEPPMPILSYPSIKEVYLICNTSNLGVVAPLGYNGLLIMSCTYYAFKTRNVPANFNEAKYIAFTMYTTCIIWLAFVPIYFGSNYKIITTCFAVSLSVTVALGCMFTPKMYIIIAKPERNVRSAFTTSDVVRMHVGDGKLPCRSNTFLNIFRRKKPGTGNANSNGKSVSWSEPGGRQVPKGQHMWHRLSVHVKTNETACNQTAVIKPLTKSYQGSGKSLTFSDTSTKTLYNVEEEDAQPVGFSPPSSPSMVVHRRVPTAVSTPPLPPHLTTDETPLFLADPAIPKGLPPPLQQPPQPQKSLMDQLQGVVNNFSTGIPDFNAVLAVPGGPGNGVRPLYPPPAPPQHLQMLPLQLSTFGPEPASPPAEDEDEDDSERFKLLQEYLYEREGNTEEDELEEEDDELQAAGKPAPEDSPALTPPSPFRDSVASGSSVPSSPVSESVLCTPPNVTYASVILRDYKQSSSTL
# Method Description: mGlu1 PAM functional assay (dog)
Readout Kind: EC50 (nM)
Answers are plain numbers, in nM.

Q: Entry Cc1nc(C2CC2)ccc1CNC(=O)c1cc(-n2cccn2)ccc1Cl [compound 8] needs its EC50 filled in; supply it.
Ans: 93

###

Hi there, I'd appreciate the recorded efflux ratio for every entry that follows.
# Test Target: P-gp (Homo sapiens)
# Construct: expressed in transfected cells; host or cells: MDCK-MDR1
# Sequence (P08183 whole entry): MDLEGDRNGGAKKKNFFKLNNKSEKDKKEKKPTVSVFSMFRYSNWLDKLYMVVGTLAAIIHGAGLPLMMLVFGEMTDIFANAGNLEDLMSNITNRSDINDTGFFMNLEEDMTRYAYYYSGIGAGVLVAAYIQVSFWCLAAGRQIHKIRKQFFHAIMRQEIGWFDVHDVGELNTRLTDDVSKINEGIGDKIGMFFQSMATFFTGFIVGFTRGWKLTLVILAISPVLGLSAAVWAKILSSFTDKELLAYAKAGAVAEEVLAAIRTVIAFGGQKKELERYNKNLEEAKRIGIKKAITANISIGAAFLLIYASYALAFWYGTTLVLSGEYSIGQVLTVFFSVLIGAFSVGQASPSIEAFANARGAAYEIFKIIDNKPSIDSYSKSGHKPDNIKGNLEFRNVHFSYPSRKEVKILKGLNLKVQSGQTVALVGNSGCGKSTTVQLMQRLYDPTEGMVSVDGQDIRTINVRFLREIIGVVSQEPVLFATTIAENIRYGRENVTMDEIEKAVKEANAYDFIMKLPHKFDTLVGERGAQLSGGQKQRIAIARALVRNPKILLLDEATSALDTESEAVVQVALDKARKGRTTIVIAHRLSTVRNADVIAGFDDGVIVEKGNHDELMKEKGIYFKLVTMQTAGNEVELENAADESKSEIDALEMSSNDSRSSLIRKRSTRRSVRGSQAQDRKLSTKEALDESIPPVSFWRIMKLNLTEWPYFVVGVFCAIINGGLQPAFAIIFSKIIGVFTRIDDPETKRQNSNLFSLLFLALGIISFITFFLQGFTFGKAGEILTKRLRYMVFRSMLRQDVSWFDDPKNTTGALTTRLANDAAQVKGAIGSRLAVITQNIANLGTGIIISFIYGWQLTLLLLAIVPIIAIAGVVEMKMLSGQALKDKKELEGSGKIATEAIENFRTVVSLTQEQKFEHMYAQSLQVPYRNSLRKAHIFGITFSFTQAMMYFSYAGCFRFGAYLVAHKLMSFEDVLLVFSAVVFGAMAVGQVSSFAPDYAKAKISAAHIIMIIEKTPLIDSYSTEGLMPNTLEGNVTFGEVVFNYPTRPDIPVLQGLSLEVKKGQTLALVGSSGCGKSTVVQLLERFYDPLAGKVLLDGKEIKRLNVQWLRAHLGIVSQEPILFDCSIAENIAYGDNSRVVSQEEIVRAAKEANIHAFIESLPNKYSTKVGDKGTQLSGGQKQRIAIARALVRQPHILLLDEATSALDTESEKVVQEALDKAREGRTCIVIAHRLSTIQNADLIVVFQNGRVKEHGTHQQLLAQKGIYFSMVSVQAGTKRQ
# Method Description: MDCK-MDR1 efflux and permeability
# Assay type: in vitro ADME
# Setup Conditions: dog, MDCK-MDR1; read-out: P-gp, MDCK-MDR1 ER
Numbers only.

| Compound | efflux ratio |
| --- | --- |
| Cc1nc2ccccc2cc1CNC(=O)c1cc(-n2cccn2)ccc1Cl [compound 6] | 0.5 |

Now turn to the next compound.
Q: Look up and report efflux ratio, with P-gp (Homo sapiens) as system, for Cc1nc(C2CC2)ccc1CNC(=O)c1cc(-n2cccn2)ccc1Cl [compound 8]
Ans: 0.93
